These measurements were taken from paper PMC4780864.

Biological target: GAK (Homo sapiens, UniProt O14976)
Construct: catalytic domain-containing construct
Sequence (O14976 1-1311): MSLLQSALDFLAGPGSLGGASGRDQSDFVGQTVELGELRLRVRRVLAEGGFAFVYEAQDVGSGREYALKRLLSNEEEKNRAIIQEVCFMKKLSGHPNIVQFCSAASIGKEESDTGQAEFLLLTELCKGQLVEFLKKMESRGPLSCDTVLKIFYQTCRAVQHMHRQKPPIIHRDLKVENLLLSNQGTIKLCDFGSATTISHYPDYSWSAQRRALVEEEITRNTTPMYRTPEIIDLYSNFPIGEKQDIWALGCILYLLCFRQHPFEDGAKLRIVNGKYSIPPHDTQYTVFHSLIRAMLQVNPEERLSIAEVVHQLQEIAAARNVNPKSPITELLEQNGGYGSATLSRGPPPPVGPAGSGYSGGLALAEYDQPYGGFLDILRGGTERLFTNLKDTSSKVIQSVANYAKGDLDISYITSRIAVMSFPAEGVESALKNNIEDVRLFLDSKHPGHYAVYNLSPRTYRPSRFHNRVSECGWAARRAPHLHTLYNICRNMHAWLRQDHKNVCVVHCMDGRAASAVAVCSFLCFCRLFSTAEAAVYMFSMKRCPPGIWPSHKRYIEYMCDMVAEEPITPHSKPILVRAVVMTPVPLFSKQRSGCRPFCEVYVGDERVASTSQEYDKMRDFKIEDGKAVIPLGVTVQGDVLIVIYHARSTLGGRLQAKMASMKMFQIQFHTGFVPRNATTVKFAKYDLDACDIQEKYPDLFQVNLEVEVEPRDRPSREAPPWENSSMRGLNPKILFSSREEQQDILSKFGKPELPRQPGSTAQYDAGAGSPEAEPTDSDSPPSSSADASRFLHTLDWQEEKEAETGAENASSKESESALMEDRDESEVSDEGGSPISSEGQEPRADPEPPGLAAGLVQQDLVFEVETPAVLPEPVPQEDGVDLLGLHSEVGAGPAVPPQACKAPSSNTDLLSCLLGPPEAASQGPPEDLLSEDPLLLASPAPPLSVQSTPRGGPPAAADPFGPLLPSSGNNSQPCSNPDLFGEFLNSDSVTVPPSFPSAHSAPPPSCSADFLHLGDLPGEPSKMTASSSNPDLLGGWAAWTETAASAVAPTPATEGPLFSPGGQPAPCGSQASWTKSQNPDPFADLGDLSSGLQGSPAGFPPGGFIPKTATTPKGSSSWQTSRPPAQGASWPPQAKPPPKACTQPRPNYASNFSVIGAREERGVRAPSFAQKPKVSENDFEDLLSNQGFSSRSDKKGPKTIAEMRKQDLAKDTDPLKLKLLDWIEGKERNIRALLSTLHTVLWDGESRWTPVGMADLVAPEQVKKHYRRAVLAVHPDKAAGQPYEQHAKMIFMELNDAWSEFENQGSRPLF
Assay: biochemical
Set-up: Thermal shift assay (DSF, SYPRO Orange), 2 uM kinase domain, mean delta Tm of triplicates versus DMSO
Details: read-out: GAK
MEASUREMENT TYPE: ΔTm at 12.5 µM
In your response, put the unit directly after the numeric value.

>>> endpoint_result("Cn1cc(C2=C(c3cn(C4CCN(Cc5ccccn5)CC4)c4ccccc34)C(=O)NC2=O)c2ccccc21 [Enzastaurin]")
"-0.347 °C"

For each listed entry, give its ΔTm at 12.5 µM.
1. CN1CC[C@H](c2c(O)cc(O)c3c(=O)cc(-c4ccccc4Cl)oc23)[C@H](O)C1 [Alvocidib]
2. COc1cccc2cc(-c3nc([C@H]4CC[C@H](C(=O)O)CC4)n4ncnc(N)c34)[nH]c12 [OSI-027]
3. CC[C@H](CO)Nc1nc(NCc2ccccc2)c2ncn(C(C)C)c2n1 [Seliciclib]
4. Cc1cc2c(F)c(Oc3ncnn4cc(OC[C@@H](C)O)c(C)c34)ccc2[nH]1 [Brivanib]
5. O=C(Nc1cccc(Nc2ncc(Br)c(NCCc3cnc[nH]3)n2)c1)N1CCCC1 [BX-912]
6. COc1cc2/c(=N/c3ccc(Br)cc3F)nc[nH]c2cc1OCC1CCN(C)CC1 [Vandetanib]
7. O=C(NC[C@H](O)CO)c1ccncc1Nc1ccc(I)cc1F [Pimasertib]

Response given:
1. 1.31 °C
2. -0.547 °C
3. -0.34 °C
4. 0.347 °C
5. 4.05 °C
6. 1.75 °C
7. -0.59 °C
